molecular target: 5-hydroxytryptamine receptor 2B (Homo sapiens)
Sequence (P41595 whole entry): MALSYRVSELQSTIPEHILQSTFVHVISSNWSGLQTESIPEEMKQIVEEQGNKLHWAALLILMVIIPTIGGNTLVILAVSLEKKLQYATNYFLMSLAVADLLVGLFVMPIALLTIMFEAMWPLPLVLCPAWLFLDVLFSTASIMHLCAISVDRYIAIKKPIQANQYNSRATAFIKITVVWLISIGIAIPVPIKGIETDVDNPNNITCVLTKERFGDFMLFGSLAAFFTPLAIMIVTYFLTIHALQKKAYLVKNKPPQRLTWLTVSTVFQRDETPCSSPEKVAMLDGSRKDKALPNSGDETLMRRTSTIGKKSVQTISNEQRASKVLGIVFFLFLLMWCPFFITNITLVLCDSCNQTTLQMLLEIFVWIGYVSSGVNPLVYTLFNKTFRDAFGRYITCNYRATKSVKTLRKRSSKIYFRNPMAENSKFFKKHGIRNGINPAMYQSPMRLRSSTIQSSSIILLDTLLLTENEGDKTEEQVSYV
pIC50: −log10 of the molar value.
measurementLabel: pIC50

# compoundString, measurementLabel, observedMeasurement
records = [
    ("CCCC[C@H](NC(=O)[C@H](C)c1c(C)[nH]c2ccc(O)cc12)c1ncc(-c2cc3ccccc3nc2OC)[nH]1", "pIC50", "> 6.00"),
]

###

assay: Fraction unbound in rat plasma; type: ADME, cell-free
Entries annotated with measured Fu

# compoundString, readoutQualifier, Fu
rows = [
    ("CCCC[C@H](NC(=O)[C@H](CN)c1c(C)[nH]c2ccc(O)cc12)c1ncc(-c2cc3ccccc3nc2OC)[nH]1", "<", 0.0001),
    ("O=C(CCCCCCC(=O)Nc1ccccc1)NO", "=", 0.75),
    ("O=C(/C=C/c1cccc(S(=O)(=O)Nc2ccccc2)c1)NO", "=", 0.138),
    ("CCCC[C@H](NC(=O)[C@H](C)c1c(C)[nH]c2ccc(O)cc12)c1ncc(-c2cc3ccccc3nc2OC)[nH]1", "=", 0.0006),
    ("CCC(=O)CCCCC[C@H](NC(=O)C1CN(C)C1)c1ncc(-c2cc3ccccc3nc2OC)[nH]1", "=", 0.0574),
    ("CCCC[C@H](NC(=O)[C@H](CN)c1c(C)[nH]c2ccc(OC)cc12)c1ncc(-c2cc3ccccc3nc2OC)[nH]1", "<", 0.0001),
]

###

Assay read-out pIC50; system under study: Cytochrome P450 2C9 (Homo sapiens).
Sequence (P11712 whole entry): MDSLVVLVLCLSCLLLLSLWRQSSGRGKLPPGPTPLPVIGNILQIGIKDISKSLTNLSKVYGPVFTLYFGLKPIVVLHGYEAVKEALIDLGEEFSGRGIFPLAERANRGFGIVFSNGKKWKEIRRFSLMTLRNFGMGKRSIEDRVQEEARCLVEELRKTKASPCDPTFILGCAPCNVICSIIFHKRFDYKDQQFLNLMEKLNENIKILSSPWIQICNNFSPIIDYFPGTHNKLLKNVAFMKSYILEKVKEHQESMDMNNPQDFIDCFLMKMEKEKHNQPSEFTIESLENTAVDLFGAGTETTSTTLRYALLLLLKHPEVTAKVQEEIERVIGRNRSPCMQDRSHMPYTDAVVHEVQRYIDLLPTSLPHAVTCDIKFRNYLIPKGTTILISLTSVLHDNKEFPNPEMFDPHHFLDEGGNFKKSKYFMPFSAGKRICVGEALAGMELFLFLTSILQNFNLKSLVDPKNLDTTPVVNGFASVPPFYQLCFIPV
pIC50: −log10 of the molar value.
measurementLabel: pIC50

# compoundString, readoutQualifier, observedMeasurement
records = [
    ("CCCC[C@H](NC(=O)[C@H](CN)c1c(C)[nH]c2ccc(O)cc12)c1ncc(-c2cc3ccccc3nc2OC)[nH]1", "<", 4.30),
    ("CCCC[C@H](NC(=O)Cc1c[nH]c2ccccc12)c1ncc(-c2cc3ccccc3nc2OC)[nH]1", "=", 5.47),
    ("CCCC[C@H](NC(=O)C1CN(C)C1)c1ncc(-c2cc3ccccc3nc2OC)[nH]1", "=", 4.30),
    ("CCCC[C@H](NC(=O)[C@H](C)c1c(C)[nH]c2ccc(O)cc12)c1ncc(-c2cc3ccccc3nc2OC)[nH]1", "=", 5.60),
    ("CCCC[C@H](NC(=O)[C@H](C)c1c(C)[nH]c2ccc(OC)cc12)c1ncc(-c2cc3ccccc3nc2OC)[nH]1", "=", 5.54),
]

###

molecular target: Nuclear receptor subfamily 1 group I member 2 (Homo sapiens, UniProt O75469); experiment: Activation of PXR (unknown origin) expressed in human DPX2 cells co-expressing luciferase gene under control of CYP3A4 promoter assessed as induction of CYP3A4 transcriptional activity incubated for overnight by luminescence based analysis
Sequence (O75469 whole entry): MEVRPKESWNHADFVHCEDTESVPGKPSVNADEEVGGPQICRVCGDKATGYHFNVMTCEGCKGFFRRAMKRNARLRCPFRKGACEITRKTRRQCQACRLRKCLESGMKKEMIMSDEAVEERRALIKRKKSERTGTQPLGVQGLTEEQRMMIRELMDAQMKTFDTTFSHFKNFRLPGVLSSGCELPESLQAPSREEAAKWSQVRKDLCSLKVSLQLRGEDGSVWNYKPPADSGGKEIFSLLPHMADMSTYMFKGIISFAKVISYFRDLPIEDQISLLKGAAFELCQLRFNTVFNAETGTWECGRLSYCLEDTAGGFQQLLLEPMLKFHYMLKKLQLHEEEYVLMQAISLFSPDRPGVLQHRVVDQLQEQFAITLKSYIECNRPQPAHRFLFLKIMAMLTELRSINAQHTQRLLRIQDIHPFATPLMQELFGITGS
pEC50: −log10 of the molar value.

# compoundString, readoutQualifier, pEC50
data = [
    ("CCCC[C@H](NC(=O)[C@H](CN)c1c(C)[nH]c2ccc(O)cc12)c1ncc(-c2cc3ccccc3nc2OC)[nH]1", "<", 4.52),
    ("CCCC[C@H](NC(=O)Cc1c[nH]c2ccc(OC)cc12)c1ncc(-c2cc3ccccc3nc2OC)[nH]1", "=", 5.60),
    ("CCCC[C@H](NC(=O)Cc1c[nH]c2ccccc12)c1ncc(-c2cc3ccccc3nc2OC)[nH]1", "=", 5.36),
    ("CCCC[C@H](NC(=O)[C@H](C)c1c(C)[nH]c2ccc(OC)cc12)c1ncc(-c2cc3ccccc3nc2OC)[nH]1", "=", 5.54),
    ("CCCC[C@H](NC(=O)C1CN(C)C1)c1ncc(-c2cc3ccccc3nc2OC)[nH]1", "<", 4.52),
    ("CCCC[C@H](NC(=O)[C@H](C)c1c(C)[nH]c2ccc(O)cc12)c1ncc(-c2cc3ccccc3nc2OC)[nH]1", "=", 5.72),
]

###

experiment: Plasma clearance in Wistar Han rat; type: ADME

# compoundString, clearance
measured = [
    ("CCCC[C@H](NC(=O)[C@H](C)c1c(C)[nH]c2ccc(O)cc12)c1ncc(-c2cc3ccccc3nc2OC)[nH]1", "25 mL/min/kg"),
]

###

Entries annotated with measured IC50
target: Class 1 histone deacetylase (Homo sapiens, UniProt Q13547+O15379+Q92769+Q9BY41); format: tissue-based; conditions: 2c4

# compoundString, measureUnit, readoutQualifier, IC50
records = [
    ("CCCC[C@H](NC(=O)Cc1c[nH]c2ccc(OC)cc12)c1ncc(-c2cc3ccccc3nc2OC)[nH]1", "µM", "=", 0.86),
    ("CCCCC[C@H](NC(=O)C1CN(C)C1)c1ncc(-c2cc3ccccc3nc2OC)[nH]1", "µM", ">", 40),
    ("CCCC[C@H](NC(=O)C1CN(C)C1)c1ncc(-c2cc3ccccc3nc2OC)[nH]1", "µM", "=", 17),
    ("CCCC[C@H](NC(=O)[C@H](CN)c1c(C)[nH]c2ccc(O)cc12)c1ncc(-c2cc3ccccc3nc2OC)[nH]1", "µM", "=", 1.3),
    ("CCC[C@H](NC(=O)C1CN(C)C1)c1ncc(-c2cc3ccccc3nc2OC)[nH]1", "µM", "=", 11),
    ("CCCC[C@H](NC(=O)[C@H](C)c1c(C)[nH]c2ccc(O)cc12)c1ncc(-c2cc3ccccc3nc2OC)[nH]1", "µM", "=", 0.24),
    ("COc1nc2ccccc2cc1-c1cnc([C@H](C)NC(=O)C2CN(C)C2)[nH]1", "µM", ">", 40),
    ("CCCC[C@H](NC(=O)Cc1c[nH]c2ccccc12)c1ncc(-c2cc3ccccc3nc2OC)[nH]1", "µM", "=", 40),
    ("CCCCCCCC[C@H](NC(=O)C1CN(C)C1)c1ncc(-c2cc3ccccc3nc2OC)[nH]1", "µM", ">", 40),
    ("CC[C@H](NC(=O)C1CN(C)C1)c1ncc(-c2cc3ccccc3nc2OC)[nH]1", "µM", ">", 40),
    ("CCCC[C@H](NC(=O)[C@H](C)c1c(C)[nH]c2ccc(OC)cc12)c1ncc(-c2cc3ccccc3nc2OC)[nH]1", "µM", "=", 0.3),
]

###

Entries annotated with measured pIC50
biological target: Histone deacetylase 2 (Homo sapiens, UniProt Q92769); experiment: Inhibition of recombinant human C-terminal FLAG-tagged HDAC2 expressed in human HEK293F cells using Fluor-de-lys substrate as substrate incubated for 3 hrs followed by substrate addition and measured after 60 mins by fluorescence based assay
Sequence (Q92769 whole entry): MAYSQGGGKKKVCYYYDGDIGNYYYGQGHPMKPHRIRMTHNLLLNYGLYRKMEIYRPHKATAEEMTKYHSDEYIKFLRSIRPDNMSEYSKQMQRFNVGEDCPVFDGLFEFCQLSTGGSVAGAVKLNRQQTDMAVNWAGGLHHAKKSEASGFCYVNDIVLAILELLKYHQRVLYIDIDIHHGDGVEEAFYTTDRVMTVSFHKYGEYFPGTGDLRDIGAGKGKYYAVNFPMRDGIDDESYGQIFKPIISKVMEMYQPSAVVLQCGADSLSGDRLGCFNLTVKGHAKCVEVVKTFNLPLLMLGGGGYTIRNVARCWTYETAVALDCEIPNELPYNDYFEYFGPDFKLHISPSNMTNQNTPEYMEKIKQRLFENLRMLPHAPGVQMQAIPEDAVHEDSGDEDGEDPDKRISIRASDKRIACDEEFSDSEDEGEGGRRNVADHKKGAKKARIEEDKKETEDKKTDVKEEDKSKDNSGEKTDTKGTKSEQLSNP
pIC50: −log10 of the molar value.

# compoundString, readoutQualifier, pIC50
rows = [
    ("CCCC[C@H](NC(=O)Cc1c[nH]c2ccccc12)c1ncc(-c2cc3ccccc3nc2OC)[nH]1", "=", 5.57),
    ("CCCC[C@H](NC(=O)[C@H](C)c1c(C)[nH]c2ccc(OC)cc12)c1ncc(-c2cc3ccccc3nc2OC)[nH]1", "=", 6.92),
    ("CCCC[C@H](NC(=O)[C@H](C)c1c(C)[nH]c2ccc(O)cc12)c1ncc(-c2cc3ccccc3nc2OC)[nH]1", "=", 7.06),
    ("CCCC[C@H](NC(=O)C1CN(C)C1)c1ncc(-c2cc3ccccc3nc2OC)[nH]1", "=", 6.12),
    ("CCCCC[C@H](NC(=O)C1CN(C)C1)c1ncc(-c2cc3ccccc3nc2OC)[nH]1", "<", 4.77),
    ("CCCC[C@H](NC(=O)Cc1c[nH]c2ccc(OC)cc12)c1ncc(-c2cc3ccccc3nc2OC)[nH]1", "=", 6.30),
    ("CC[C@H](NC(=O)C1CN(C)C1)c1ncc(-c2cc3ccccc3nc2OC)[nH]1", "<", 4.30),
    ("COc1nc2ccccc2cc1-c1cnc(CNC(=O)C2CN(C)C2)[nH]1", "<", 4.30),
    ("CCCC[C@H](NC(=O)[C@H](CN)c1c(C)[nH]c2ccc(O)cc12)c1ncc(-c2cc3ccccc3nc2OC)[nH]1", "=", 8.30),
    ("COc1nc2ccccc2cc1-c1cnc([C@H](C)NC(=O)C2CN(C)C2)[nH]1", "<", 4.30),
    ("CCCCCCCC[C@H](NC(=O)C1CN(C)C1)c1ncc(-c2cc3ccccc3nc2OC)[nH]1", "<", 4.30),
    ("CCC[C@H](NC(=O)C1CN(C)C1)c1ncc(-c2cc3ccccc3nc2OC)[nH]1", "=", 5.47),
]

###

test: Half life in Wistar Han rat; assay type: ADME; conditions: in vivo
measurementLabel: half-life

# compoundString, observedMeasurement
measured = [
    ("CCCC[C@H](NC(=O)[C@H](C)c1c(C)[nH]c2ccc(O)cc12)c1ncc(-c2cc3ccccc3nc2OC)[nH]1", "1.2 h"),
]

###

biological target: Histone deacetylase 3 (Homo sapiens); experiment: Inhibition of recombinant human FLAG-tagged HDAC3 expressed in human HEK293F cells co-expressing His6-tagged SMRT (1 to 899 residues) using Fluor-de-lys substrate as substrate incubated for 3 hrs followed by substrate addition and measured after 60 mins by fluorescence based assay
Sequence (O15379 whole entry, the tested form may be a part): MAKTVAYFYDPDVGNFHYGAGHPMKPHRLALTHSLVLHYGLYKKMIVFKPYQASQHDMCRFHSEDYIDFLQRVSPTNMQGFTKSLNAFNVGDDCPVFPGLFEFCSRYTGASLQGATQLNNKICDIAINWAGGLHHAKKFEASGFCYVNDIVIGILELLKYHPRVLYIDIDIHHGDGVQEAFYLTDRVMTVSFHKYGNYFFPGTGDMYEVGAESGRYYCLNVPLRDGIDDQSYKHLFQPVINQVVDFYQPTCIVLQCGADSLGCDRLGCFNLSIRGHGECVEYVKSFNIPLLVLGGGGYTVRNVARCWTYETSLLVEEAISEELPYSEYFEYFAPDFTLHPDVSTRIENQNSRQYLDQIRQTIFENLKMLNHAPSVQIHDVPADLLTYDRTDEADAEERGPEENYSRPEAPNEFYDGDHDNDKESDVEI
measurementLabel: IC50 (nM)

# compoundString, studySystem, measureUnit, observedMeasurement
rows = [
    ("CCCCCCCC[C@H](NC(=O)C1CN(C)C1)c1ncc(-c2cc3ccccc3nc2OC)[nH]1", "Histone deacetylase 3 (Homo sapiens)", "nM", 5200),
    ("COc1nc2ccccc2cc1-c1cnc(CNC(=O)C2CN(C)C2)[nH]1", "Histone deacetylase 3 (Homo sapiens)", "nM", 15000),
    ("CCCC[C@H](NC(=O)Cc1c[nH]c2ccccc12)c1ncc(-c2cc3ccccc3nc2OC)[nH]1", "Histone deacetylase 3 (Homo sapiens)", "nM", 340),
    ("CCCC[C@H](NC(=O)[C@H](CN)c1c(C)[nH]c2ccc(O)cc12)c1ncc(-c2cc3ccccc3nc2OC)[nH]1", "Histone deacetylase 3 (Homo sapiens)", "nM", 4.7),
    ("CCCC[C@H](NC(=O)[C@H](C)c1c(C)[nH]c2ccc(OC)cc12)c1ncc(-c2cc3ccccc3nc2OC)[nH]1", "Histone deacetylase 3 (Homo sapiens)", "nM", 210),
]

Data origin, for the record: ChEMBL document CHEMBL4814059
